biological target: SIRT1 (Homo sapiens); experiment: TAMRA based mass spectrometry assay of SIRT1 activity; type: biochemical; conditions: concentration of test compound giving 150% activation of SIRT1; TAMRA peptide substrate

| querySmiles | TAMRA EC1.5 (μM) |
| --- | --- |
| O=C(Nc1cccc(N2CCOCC2)n1)c1cnc2ccc(-c3ccccc3C(F)F)nn12 | A (EC1.5<1 μM) |
| COCCn1cc(NC(=O)c2cnc3ccc(-c4ccccc4C(F)(F)F)nn23)cn1 | B (EC1.5 1-25 μM) |
| Cc1cc(-c2ccccc2C(F)(F)F)nn2c(C(=O)Nc3cccc(CN4CCOCC4)n3)cnc12 | A (EC1.5<1 μM) |
| O=C(Nc1ccncc1)c1cnc2ccc(-c3c(F)cccc3Cl)nn12 | B (EC1.5 1-25 μM) |

----------
biological target: UniProtKB Q96EB6; experiment: Trp mass spectrometry assay of SIRT1 activity; assay type: biochemical; conditions: Trp assay; concentration giving 150% activation of SIRT1

| compound | Trp EC1.5 (μM) |
| --- | --- |
| O=C(Nc1ccccn1)c1cnc2ccc(N3CC[C@H](F)C3)nn12 | B (EC1.5 1-25 μM) |
| O=C(Nc1ccncc1F)c1cnc2ccc(-c3cccc(OC[C@H](O)CO)c3)nn12 | A (EC1.5<1 μM) |
| Cc1nc2ccc(-c3ccccc3Cl)nn2c1NC(=O)c1ccncn1 | C (EC1.5>25 μM) |
| Cc1cncc(C(=O)Nc2cnc3ccc(-c4ccccc4C(F)(F)F)nn23)c1 | B (EC1.5 1-25 μM) |
| O=C(Nc1cnc2ccc(-c3ccccc3C(F)(F)F)nn12)c1cccc(OC[C@H](O)CO)n1 | A (EC1.5<1 μM) |
| Cc1ccnc(NC(=O)c2cnn3ccc(-c4ccccc4OC(F)(F)F)nc23)c1 | B (EC1.5 1-25 μM) |
| Cc1nc2ccc(-c3ccccc3Cl)nn2c1NC(=O)c1cccc(OCC(O)CO)n1 (stereo not shown) | C (EC1.5>25 μM) |

----------
Each entry below lists one item and its recorded Emax value.
molecular target: SIRT1 (Homo sapiens, UniProt Q96EB6); test: Trp mass spectrometry assay of SIRT1 activity; format: biochemical; conditions: percent maximum fold activation of SIRT1; Trp peptide substrate; read-out: Trp % Fold Act
Sequence (Q96EB6 whole entry): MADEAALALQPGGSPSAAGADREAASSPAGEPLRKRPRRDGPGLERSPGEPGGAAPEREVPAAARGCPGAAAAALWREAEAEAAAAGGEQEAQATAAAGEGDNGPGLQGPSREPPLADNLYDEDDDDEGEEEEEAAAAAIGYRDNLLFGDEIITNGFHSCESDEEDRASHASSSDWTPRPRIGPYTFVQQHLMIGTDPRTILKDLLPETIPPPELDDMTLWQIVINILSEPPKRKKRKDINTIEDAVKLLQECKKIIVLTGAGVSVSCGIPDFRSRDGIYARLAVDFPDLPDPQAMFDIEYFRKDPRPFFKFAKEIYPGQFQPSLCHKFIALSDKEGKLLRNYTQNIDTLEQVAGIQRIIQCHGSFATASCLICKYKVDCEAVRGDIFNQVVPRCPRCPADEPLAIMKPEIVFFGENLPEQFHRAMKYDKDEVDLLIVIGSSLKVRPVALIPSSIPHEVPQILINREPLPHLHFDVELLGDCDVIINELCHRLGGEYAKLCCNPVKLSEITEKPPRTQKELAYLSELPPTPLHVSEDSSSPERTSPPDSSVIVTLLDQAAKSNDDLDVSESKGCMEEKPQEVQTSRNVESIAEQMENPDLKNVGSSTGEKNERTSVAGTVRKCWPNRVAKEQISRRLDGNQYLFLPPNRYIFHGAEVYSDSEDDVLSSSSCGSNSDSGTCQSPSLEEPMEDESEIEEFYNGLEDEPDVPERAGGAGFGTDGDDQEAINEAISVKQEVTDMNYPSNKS

| compound | Emax |
| --- | --- |
| O=C(Nc1cccnn1)c1cnn2ccc(N3CCC[C@H]3C(F)(F)F)nc12 | ≥ 350% |
| Cc1nc2ccc(N3CCCC3C(F)(F)F)nn2c1C(=O)Nc1cccnn1 (stereo not shown) | ≥ 350% |
| O=C(Nc1cnc2ccc(-c3ccccc3C(F)(F)F)nn12)c1cccnc1OCC(O)CO (stereo not shown) | ≥ 350% |
| CC1CCCN1c1ccn2ncc(C(=O)Nc3cnccn3)c2n1 (stereo not shown) | < 350% |
| C[C@H]1CCCN1c1ccc2ncc(C(=O)Nc3ccc(F)cn3)n2n1 | < 350% |
| O=C(Nc1cccnc1)c1cnn2ccc(N3CCCC3C(F)(F)F)nc12 (stereo not shown) | ≥ 350% |
| COc1ccnc(NC(=O)c2cnc3ccc(-c4ccccc4C(F)(F)F)nn23)n1 | ≥ 350% |
| Cc1cc(-c2ccccc2C(F)(F)F)nn2c(C(=O)Nc3cccc(N4CCOCC4)n3)cnc12 | ≥ 350% |
| O=C(Nc1nc2c(s1)CCCC2)c1cnc2ccc(N3CCCC3C(F)(F)F)nn12 (stereo not shown) | ≥ 350% |
| C[C@@H]1CN(c2ccc3ncc(C(=O)Nc4cncc(F)c4)n3n2)CCO1 | ≥ 350% |
| Cc1nc(NC(=O)c2cnn3ccc(N4CCC(C(F)(F)F)CC4)nc23)sc1C | ≥ 350% |
| CS(=O)(=O)c1cccc(-c2ccc3ncc(C(=O)Nc4nccs4)n3n2)c1 | ≥ 350% |
| COc1nccc(NC(=O)c2c(C)nn3ccc(N4CCC[C@@H]4C(F)(F)F)nc23)n1 | ≥ 350% |
| COc1nccc(NC(=O)c2cnn3ccc(N4CCC[C@@H]4C(F)(F)F)nc23)n1 | ≥ 350% |
| O=C(Nc1cccc2c1COB2O)c1cnc2ccc(N3CCCC3C(F)(F)F)nn12 (stereo not shown) | ≥ 350% |
| Cc1nc2ccc(-c3ccccc3C(F)(F)F)nn2c1C(=O)Nc1cccc(N2CCC2)n1 | ≥ 350% |
| O=C(Nc1cnccn1)c1cnn2ccc(N3CCC[C@H]3C(F)(F)F)nc12 | ≥ 350% |
| Cc1nn2ccc(N3CCC[C@@H]3C(F)(F)F)nc2c1C(=O)Nc1cccnc1 | ≥ 350% |
| CC1CCCN1c1ccn2ncc(C(=O)Nc3cccnn3)c2n1 (stereo not shown) | ≥ 350% |
| Cc1nn2ccc(N3CCC[C@H]3C(F)(F)F)nc2c1C(=O)Nc1cccnc1 | ≥ 350% |
| O=C(Nc1cncc(F)c1)c1cnn2ccc(N3CCC(C(F)(F)F)CC3)nc12 | ≥ 350% |
| O=C(Nc1cccnc1)c1cnc2ccc(-c3cccc(F)c3Cl)nn12 | < 350% |
| O=C(Nc1cnc2ccc(-c3ccccc3C(F)(F)F)nn12)c1cccc(OCC(O)CO)n1 (stereo not shown) | ≥ 350% |
| C[C@H]1CCCN1c1ccc2ncc(C(=O)Nc3cccnn3)n2n1 | ≥ 350% |
| O=C(Nc1cccnn1)c1cnn2ccc(N3CCCC(C(F)(F)F)C3)nc12 (stereo not shown) | ≥ 350% |
| COc1nccc(NC(=O)c2cnn3ccc(N4CCC(C(F)(F)F)CC4)nc23)n1 | ≥ 350% |
| O=C(Nc1cccnc1)c1cnn2ccc(N3CCC[C@@H]3C(F)(F)F)nc12 | ≥ 350% |
| Cc1nc2ccc(N3CCC(F)(F)C3)nn2c1C(=O)Nc1cccnn1 | ≥ 350% |
| O=C(Nc1ccncc1)c1cnc2ccc(-c3c(F)cccc3Cl)nn12 | < 350% |
| Cc1cc(C)c(NC(=O)c2cnc3ccc(-c4ccccc4C(F)(F)F)nn23)cn1 | < 350% |
| COc1nccc(NC(=O)c2c(C)nn3ccc(N4CCC[C@H]4C(F)(F)F)nc23)n1 | ≥ 350% |
| COc1nccc(NC(=O)c2cnn3ccc(N4CCCC4C)nc23)n1 (stereo not shown) | < 350% |
| O=C(Nc1cccnn1)c1cnn2ccc(N3CCC[C@@H]3C(F)(F)F)nc12 | ≥ 350% |
| C[C@H]1CCCN1c1ccc2ncc(C(=O)Nc3cccnc3)n2n1 | < 350% |
